These measurements were taken from patent US9745348B2.

Overview of recorded viability at 48 h, 5 µM for various substances
assay: in vitro; type: cell-based; details: human, neonatal fibroblasts (HDFn cells)
Where no end group is shown, it is not given here.
Numeric only. Scale: %

As a guide, the following entries are already answered.
Reported viability at 48 h, 5 µM, substance GKIKKIIKKIIKII-NH2 [GKI, GKI(KKII)2 KII-NH2] : ____ 90

// next record GIKKKIIKKIIKII-NH2 [GIK, GIK(KKII)2 KII-NH2] 87

Further cases:
Can you share its viability at 48 h, 5 µM? I mean this substance: GLLKKLLKKLLKKL-NH2 [GL, G(LLKK)3 L-NH2] 87

Let us now turn to GIIKKIIKKIIKKIIKKI-NH2 [Helix G4, G(IIKK)4 I-NH2] 92

---

test: MTT viability of fibroblasts over three days; type: cell-based, human; settings: human, adult fibroblasts (HDFa cells)
Where no end group is shown, it is not given here.
Binary call on viability at 24 h, 25 µM with cut-off 90%: strictly below means condition met, and equality or higher means condition not met.

A selection of reference data follows.
Would you kindly verify if viability at 24 h, 25 µM of GIIKKIIKKIIKKIIKKI-NH2 [Helix G4, G(IIKK)4 I-NH2] is strictly less than 90%? condition met

Further, for GIIKKIIKKI-NH2 [Helix G2, G(IIKK)2 I-NH2] ? condition not met

# input for lookup
Determine whether this substance shows viability at 24 h, 25 µM lower than 90% (ties excluded): GKIKKIIKKIIKII-NH2 [GKI, GKI(KKII)2 KII-NH2] condition not met

---

Test: MTT viability of fibroblasts over three days
Format: cell-based, human
Settings: human, adult fibroblasts (HDFa cells)
Experimental: MTT assay: Cell viability and proliferation is widely assessed by the MTT assay as already described previously. The fibroblasts cells, Neonatal (HDFn) and Adult (HDFa), were both grown until greater than 80% confluent. […] After 24 hour incubation the culture medium was replaced with fresh medium containing an appropriate amount of the peptide for investigation. […]
Where a SMILES comes first, the peptide text is derived from it. [ ]: non-standard residue; d: D form. Orn = NCCC[C@H](N)C(=O)O
Measured property: viability at 72 h, 25 µM (%)
Supply the numeric figure in %, leaving out any unit text.

Given CC[C@H](C)[C@H](NC(=O)[C@H](CCCN)NC(=O)[C@H](CCCN)NC(=O)[C@@H](NC(=O)[C@@H](NC(=O)[C@H](CCCN)NC(=O)[C@H](CCCN)NC(=O)[C@@H](NC(=O)[C@@H](NC(=O)[C@H](CCCN)NC(=O)[C@H](CCCN)NC(=O)[C@@H](NC(=O)[C@@H](NC(=O)CN)[C@@H](C)CC)[C@@H](C)CC)[C@@H](C)CC)[C@@H](C)CC)[C@@H](C)CC)[C@@H](C)CC)C(N)=O [GO, G(IIOO)3 I-NH2] (H-GII[Orn][Orn]II[Orn][Orn]II[Orn][Orn]I-NH2) , state its recorded viability at 72 h, 25 µM. 82

---

assay: in vitro; assay type: cell-based; settings: human, neonatal fibroblasts (HDFn cells)
Where no end group is shown, it is not given here.
Measured property: viability at 48 h, 50 µM (%)
Write it as a number; the unit % goes unstated.

State the recorded viability at 48 h, 50 µM for this entry: GLLKKLLKKLLKKL-NH2 [GL, G(LLKK)3 L-NH2] 74

Try the substance GIKKKIIKKIIKII-NH2 [GIK, GIK(KKII)2 KII-NH2] 81

Then GKIKKIIKKIIKII-NH2 [GKI, GKI(KKII)2 KII-NH2] ? 75

Proceeding to the next substance to report its viability at 48 h, 50 µM.
Data request, read-out viability at 48 h, 50 µM, for GIIKKIIKKIIKKIIKKI-NH2 [Helix G4, G(IIKK)4 I-NH2] 71

---

assay: in vitro; assay type: cell-based; settings: human, neonatal fibroblasts (HDFn cells)
Where no end group is shown, it is not given here.
Measured property: viability at 48 h, 25 µM (%)
State just the number; it will be interpreted in %.

Answered cases to consult:
What measured viability at 48 h, 25 µM goes with GLLKKLLKKLLKKL-NH2 [GL, G(LLKK)3 L-NH2] ? 84

Same question for GKIKKIIKKIIKII-NH2 [GKI, GKI(KKII)2 KII-NH2] please. 83

Please answer likewise for GIIKKIIKKIIKKIIKKI-NH2 [Helix G4, G(IIKK)4 I-NH2] 77

***
Quick check: viability at 48 h, 25 µM of GIKKKIIKKIIKII-NH2 [GIK, GIK(KKII)2 KII-NH2] ? 84

---

test: in vitro; assay type: cell-based; details: human, neonatal fibroblasts (HDFn cells)
Where a SMILES comes first, the peptide text is derived from it. [ ]: non-standard residue; d: D form. Orn = NCCC[C@H](N)C(=O)O
Measured property: viability at 48 h, 100 µM (%)
State the answer as a number, implicitly in %.

I am curious: what viability at 48 h, 100 µM value has been reported for CC[C@H](C)[C@H](NC(=O)[C@H](CCCN)NC(=O)[C@H](CCCN)NC(=O)[C@@H](NC(=O)[C@@H](NC(=O)[C@H](CCCN)NC(=O)[C@H](CCCN)NC(=O)[C@@H](NC(=O)[C@@H](NC(=O)[C@H](CCCN)NC(=O)[C@H](CCCN)NC(=O)[C@@H](NC(=O)[C@@H](NC(=O)CN)[C@@H](C)CC)[C@@H](C)CC)[C@@H](C)CC)[C@@H](C)CC)[C@@H](C)CC)[C@@H](C)CC)C(N)=O [GO, G(IIOO)3 I-NH2] (H-GII[Orn][Orn]II[Orn][Orn]II[Orn][Orn]I-NH2) ? 75

---

assay: in vitro; assay type: cell-based; settings: human, neonatal fibroblasts (HDFn cells)
Where no end group is shown, it is not given here.
Measured property: viability at 72 h, 5 µM (%)
All answers are understood in %, so give the number only.

Example entries and their recorded answers appear below.
Fill blank: measured viability at 72 h, 5 µM of the substance GIKKKIIKKIIKII-NH2 [GIK, GIK(KKII)2 KII-NH2] is ____. 83

Request: GIIKKIIKKIIKKIIKKI-NH2 [Helix G4, G(IIKK)4 I-NH2] 79

Same read-out for GKIKKIIKKIIKII-NH2 [GKI, GKI(KKII)2 KII-NH2] ? 88

Turning to the following substance.
Data request, read-out viability at 72 h, 5 µM, for GLLKKLLKKLLKKL-NH2 [GL, G(LLKK)3 L-NH2] 83

---

experiment: MTT viability of fibroblasts over three days; format: cell-based, human; conditions: human, adult fibroblasts (HDFa cells)
Where a SMILES comes first, the peptide text is derived from it. [ ]: non-standard residue; d: D form. Orn = NCCC[C@H](N)C(=O)O
Measured property: viability at 48 h, 5 µM

Looking for the measured viability at 48 h, 5 µM of CC[C@H](C)[C@H](NC(=O)[C@H](CCCN)NC(=O)[C@H](CCCN)NC(=O)[C@@H](NC(=O)[C@@H](NC(=O)[C@H](CCCN)NC(=O)[C@H](CCCN)NC(=O)[C@@H](NC(=O)[C@@H](NC(=O)[C@H](CCCN)NC(=O)[C@H](CCCN)NC(=O)[C@@H](NC(=O)[C@@H](NC(=O)CN)[C@@H](C)CC)[C@@H](C)CC)[C@@H](C)CC)[C@@H](C)CC)[C@@H](C)CC)[C@@H](C)CC)C(N)=O [GO, G(IIOO)3 I-NH2] (H-GII[Orn][Orn]II[Orn][Orn]II[Orn][Orn]I-NH2) , can you help? 95%

---

Documented viability at 24 h, 50 µM across a set of substances
test: MTT viability of fibroblasts over three days; assay type: cell-based, human; details: human, adult fibroblasts (HDFa cells)
Where no end group is shown, it is not given here.
# output: bare number, implied unit %

Which value of viability at 24 h, 50 µM has been reported for GLLKKLLKKLLKKL-NH2 [GL, G(LLKK)3 L-NH2] in the records? 87

Request: GIKKKIIKKIIKII-NH2 [GIK, GIK(KKII)2 KII-NH2] 87

Record: GIIKKIIKKIIKKI-NH2 [Helix G3, G(IIKK)3 I-NH2] 87

New cases:
# query: viability at 24 h, 50 µM of entry GKIKKIIKKIIKII-NH2 [GKI, GKI(KKII)2 KII-NH2] 90

Param item: GIIKKIIKKIIKKIIKKI-NH2 [Helix G4, G(IIKK)4 I-NH2] 85

Lookup GIIKKIIKKI-NH2 [Helix G2, G(IIKK)2 I-NH2] 92

---

assay: MTT viability of fibroblasts over three days; type: cell-based, human; conditions: human, adult fibroblasts (HDFa cells)
Where no end group is shown, it is not given here.
Measured property: viability at 72 h, 100 µM (%)
Lab book: enter the figure in %, no units written.

Some substances with recorded viability at 72 h, 100 µM:
Entry under review: GIIKKIIKKIIKKI-NH2 [Helix G3, G(IIKK)3 I-NH2] . Reported viability at 72 h, 100 µM? 71

Try the substance GIIKKIIKKIIKKIIKKI-NH2 [Helix G4, G(IIKK)4 I-NH2] 55

Another substance to look at: GIIKKIIKKI-NH2 [Helix G2, G(IIKK)2 I-NH2] 80

Please answer likewise for GKIKKIIKKIIKII-NH2 [GKI, GKI(KKII)2 KII-NH2] 70

Others:
Look up viability at 72 h, 100 µM: GIKKKIIKKIIKII-NH2 [GIK, GIK(KKII)2 KII-NH2] 65

Please give the result for GLLKKLLKKLLKKL-NH2 [GL, G(LLKK)3 L-NH2] too. 11
